Target: T1, Biotinylated Human VEGF165 (ACROBiosystems, Cat. No. VE5-H82Q0) (human, UniProt P15692-4 27-191, biotinylated (site not stated))
T1 construct: Bought reagent; also called Human VEGF-Bio; human VEGF165-Bio
T1 sequence (P15692 other isoform, or with tags, fused parts or gaps limits assumed): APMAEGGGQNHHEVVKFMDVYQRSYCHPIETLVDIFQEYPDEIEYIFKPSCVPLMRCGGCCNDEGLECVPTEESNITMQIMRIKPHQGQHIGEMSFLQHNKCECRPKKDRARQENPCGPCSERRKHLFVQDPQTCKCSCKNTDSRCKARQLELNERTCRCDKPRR
Test: BLI (Octet RED96e), method of Example 4, antibody on AHC sensor, 1:1 fit
Please provide measured koff for the entries that follow.
Write down the numeric answer in s⁻¹ and omit the unit.

Q: Dear colleague, I am looking for the recorded koff of the following binder: Ab1910VE24 (expressed affinity-matured single domain antibody, clone YC43B1) (VHH) VHH: EVQLVESGGGLVQPGGSLRLSCAASGSTSDIVSMAWYRQAPGKERELVSAVFAEDWRYVEDSVKGRFTISRDNSKNTVYLQMNSLRAEDTAVYYCNVRLRITDWYSRERLDYWGQGTLVTVSS
Result: 0.000857

Q: State the recorded koff for this entry: Ab1910VE21 (expressed affinity-matured single domain antibody, clone YC41D1) (VHH) VHH: EVQLVESGGGLVQPGGSLRLSCAASGSTSDIVSMAWYRQAPGKERELVSAVLAPGWSYVEDSVKGRFTISRDNSKNTVYLQMNSLRAEDTAVYYCNVRLRITDERRRERLDYWGQGTLVTVSS
Result: 0.00051

Q: I am curious: what koff value has been reported for Ab1910VE18 (expressed single domain antibody with the Ab1910VE9 parent sequence, molecule before affinity maturation) (VHH, Its theoretical pI (7.5) differs from that of Ab1910VE9 (7), so it is kept apart from Ab1910VE9) VHH: EVQLVESGGGLVQPGGSLRLSCAASGSTSDIVSMAWYRQAPGKERELVSAVFAEDWRYVEDSVKGRFTISRDNSKNTVYLQMNSLRAEDTAVYYCNVRLRITDERRRERLDYWGQGTLVTVSS ?
Result: 0.00403

Q: What koff value was documented for this binder, Ab1910VE23 (expressed affinity-matured single domain antibody, clone YC43H2) (VHH) VHH: EVQLVESGGGLVQPGGSLRLSCAASGSTSDIVSMAWYRQAPGKERELVSAVFAEDWRYVEDSVKGRFTISRDNSKNTVYLQMNSLRAEDTAVYYCNVRLRIPHQWRTERLDYWGQGTLVTVSS ?
Result: 0.00104
